# experimentalTarget: Fyn (UniProt P06241)
# Sequence (P06241 whole entry, looked up): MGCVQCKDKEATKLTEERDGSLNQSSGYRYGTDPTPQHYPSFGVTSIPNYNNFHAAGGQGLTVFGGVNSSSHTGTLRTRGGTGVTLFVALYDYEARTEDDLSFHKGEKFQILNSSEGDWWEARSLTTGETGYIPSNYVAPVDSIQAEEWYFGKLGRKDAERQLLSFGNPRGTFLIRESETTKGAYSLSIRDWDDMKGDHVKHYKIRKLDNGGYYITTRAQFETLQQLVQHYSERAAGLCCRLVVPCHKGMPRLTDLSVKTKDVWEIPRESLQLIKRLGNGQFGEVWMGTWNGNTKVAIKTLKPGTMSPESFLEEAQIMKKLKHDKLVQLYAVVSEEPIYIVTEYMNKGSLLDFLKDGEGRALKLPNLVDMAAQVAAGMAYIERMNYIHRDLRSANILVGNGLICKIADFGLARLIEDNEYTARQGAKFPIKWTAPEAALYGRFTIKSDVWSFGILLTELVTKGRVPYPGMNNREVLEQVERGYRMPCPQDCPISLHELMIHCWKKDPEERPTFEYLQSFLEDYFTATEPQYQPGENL
# assayOverview: phosphorylation enrichment, bacterial display (enrichment ratio); higher = better substrate or ligand; peptides without Tyr show the background;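 also: 11-residue human phosphosite peptides and single-mutation variants displayed on the E. coli surface, counted by deep sequencing, each peptide's frequency after selection divided by its frequency in the unselected input library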;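 also: frequency after pTyr selection over input frequency; kinase dosed for 20-30% of maximal phosphorylation in three min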
readoutName: phosphorylation enrichment
One number for each entry.

# chain, experimentalTarget, phosphorylation enrichment
measured = [
    ("RRESPYGGGGG [FUS_Y526_R524S]", "Fyn (UniProt P06241)", 0.451),
]

Parameter requested: phosphorylation enrichment. Apply to each item below.
1. RQLEIYRASRP [ERCC4_Y594]
2. ITVCDYTNPCP [MYD88_Y276_T281P]

result:
[0.426, 0.428]

I need phosphorylation enrichment for every entry listed below, if you could help.
1. FDGKDYIALNE [HLA-A_Y147_YF]
2. LIDGFYRLTED [JAK2_Y373_A377E_YF]
3. RQNQEYEILMD [KRT39_Y379_L383M]
4. TDLAYYLVCKG [ASL_Y376_R379C]
5. GSQERDFELVE [TSC2_Y407_Y407D]
6. IMVFVYSRVFQ [ADRB2_Y219]
7. GRRNTCYASIA [ACADM_Y352_Y352C]
8. ILNANYMAKRL [GLDC_Y839]

result:
0.7
0.66
0.815
0.689
0.522
0.445
0.442
0.412

Return reported phosphorylation enrichment values for all items listed beneath this line.
1. SYTDPYAQPPL [KMT2D_Y2378]
2. HLEKKYVHRDS [CSF1R_Y708_R710H]
3. QLQVFYATLDQ [MIPEP_Y579]
4. FMCKVYSDRQP [FGFR1_Y280_P283R]
5. NRKGKYFNVER [ANAPC4_Y469]

result:
0.496
0.585
1.8
0.544
0.386

====

# Tested on: c-Abl (mouse)
# assayOverview: phosphorylation enrichment, bacterial display (enrichment ratio); higher = better substrate or ligand; peptides without Tyr show the background
Binning scheme for phosphorylation enrichment: band 1 (below 0.6), band 2 (0.6 to below 0.8), band 3 (0.8 or more)

For orientation, consider the following solved cases.
# chain, classification
rows = [
    ("LQLLGDRPVYS [CHST6_Y358_Y358D]", "band 3"),
    ("PMDGEYFTLQI [TP53_Y327_L323M]", "band 3"),
    ("SWSTSYSGYRY [NKAPL_Y91]", "band 2"),
    ("ILTFKYLQIPM [KIT_Y547_K550I_YF]", "band 2"),
]

query: Hey, which category is ILNANYMAKRL [GLDC_Y839] in, do you know?
result: band 1

query: Exam item: assign PSAELYSNALP [PDGFRB_Y716] to the correct category.
result: band 3

====

# Tested on: Fer (mouse)
# assayOverview: phosphorylation enrichment, bacterial display (enrichment ratio); higher = better substrate or ligand; peptides without Tyr show the background
Could you please report measured phosphorylation enrichment for the items listed next?
Numbers only.

Consider the following illustrative entries.
# chain, reportedValue
measured = [
    ("PFSEPYADFGG [APBA1_Y187_YF]", 0.719),
    ("ACQGKYTPSGQ [ALDOA_Y343]", 0.531),
    ("RICRRYCQVLN [IQCF1_Y144_R141C]", 0.654),
    ("KSLFHYRQYSA [CPS1_Y1491]", 0.408),
    ("GDPTEYYITAI [IGSF22_Y501_S503I]", 0.611),
]

Would you mind giving phosphorylation enrichment for every sequence in the list below?
1. KMKGDYFCFLA [YWHAG_Y130_R132C_YF]
2. KNEVFYQCPDQ [FBXO3_Y223]
3. ISKKRYAGLLF [POLD1_Y809]
4. TIEDSYRKQVV [KRAS_Y40]
5. IMITDYLLLFR [INSR_Y87]

result:
0.548
6.47
0.307
0.348
0.513
